Data provenance: patent US20080107658A1

Molecular target: mouse nerve growth factor (mouse, UniProt P01139 122-241)
Sequence (P01139 122-241): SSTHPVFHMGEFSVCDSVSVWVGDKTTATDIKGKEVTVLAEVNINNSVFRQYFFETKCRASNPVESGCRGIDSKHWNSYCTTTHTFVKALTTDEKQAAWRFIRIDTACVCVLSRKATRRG
Assay: cell-based or functional assay
IC50, FLIPR calcium mobilisation less than 200 pM is true (1); IC50, FLIPR calcium mobilisation greater than or equal to 200 pM is false (0).

The following binders have reported results that may help.
G1230H7 human IgG4 (antibody, V domains shown) VH: QVQLVQSGAEVKKPGSSVKVSCKASGGTFSTYGISWVRQAPGQGLEWMGGIIPIFDTGNSAQSFQGRVTITADESTSTAYMELSSLRSEDTAVYYCARSSRIYDFNSALISYYDMDVWGQGTMVTVSS VL: QSVLTQPPSVSAAPGQKVTISCSGSSSNIGNNYVSWYQQLPGTAPKLLIYDNNKRPSGIPDRFSGSKSGTSATLGITGLQTGDEADYYCGTWDSSLSAWVFGGGTKLTVL | false (0)
1131H2 human IgG4 (antibody, V domains shown) VH: EVQLVQSGAEVKKPGSTVKVSCKASGGTFSTYGISWVRQAPGQGLEWIGGIIPIFDTGNSAQSFQGRVTITADESTSTAYMEVSSLRSDDTAVYYCASSSRIYDLNPSLTAYYDMDVWGQGTMVTVSS VL: QAVLTQPSSVSTPPGQKVTISCSGTSSNIGNNYVSWYQQLPGTAPKLLIYDNNKRPSGIPDRFSGSKSGTSATLGITGLQTGDEADYYCGTWDSSLSAWVFGGGTKLTVL | true (1)
1175H8 human IgG4 (antibody, V domains shown) VH: EVQLVQSGAEVKKPGSSVKVSCKASGGTFSTYGISWVRQAPGQRLEWIGGIIPIFDTGNSAQSFQGRVTITADESTSTAYMEVSSLRSDDTAVYYCASSSRIYDATTGLTPYYDMDVWGQGTMVTVSS VL: QAVLTQPSSVSTPPGQKVTISCSGSSSNIGNNYVSWYQQLPGTAPKLLIYDNNKRPSGIPDRFSGSKSGTSATLGITGLRTGDEADYYCGTWDSSLSAWVFGGGTKLTVL | true (1)
1230D8 human IgG4 (antibody, V domains shown) VH: QMQLVQSGAEVKKTGSSVKVSCKASGYTFPYHYLHWVRQAPGQGLEWMGGIIPIFGTTNYAQRFQDRVTITADESTSTAYMEFSSLRSEDTAVYYCASADYVWESYHPATSLSLWGRGTMVTVSS VL: QSVLTQPPSVSAAPGQKVTISCPGSTSNIGNNYVSWYQQRPGKAPKLMIYDVSKRPSGVPDRFSGSKSGNSASLDISELQSEDEADYYCAAWDDSLSEFLFGTGTKLTVL | false (0)

## Task In plain terms, does 1218H5 human IgG4 (antibody, V domains shown) VH: EVQLVQSGAVVKKPGSSVKVSCKASGGTFSTYGISWVRQAPGQGLEWIGGIIPIFDTGSSAQSFQGRVTITADESTSTAYMEVSSLRSDDTAVYYCASSSRIYDLNPSLTAYYDMDVWGQGTMVTVSS VL: QAVLTQPSSVSTPPGQKVTISCSGSSSNTGNNYVSWYQQLSGTAPKLLIYDNNKRPSGIPDRFSGSKSGTSATLGITGLQTGDEADYYCGTWDSSLSAWVFGGGTKLTVL come in under 200 pM for IC50, FLIPR calcium mobilisation?
## Result true (1)
